- Tested on: Trichophyton mentagrophytes CBS.50148
- assay-protocol: minimal inhibitory concentration in Sabouraud medium
- Assay type: cell-based
- applied-conditions: Trichophyton mentagrophytes, CBS.50148, 144 h, 144 hours; read-out: minimal inhibitory concentration

# compound, MIC (µg/mL)
measured = [
    ("O=C1CC(S(=O)(=O)C2CCCCC2)C(=O)N1c1ccc([N+](=O)[O-])cc1 (stereo not shown)", 100),
    ("O=C1CC(S(=O)(=O)C2CCCCC2)C(=O)N1c1ccccc1Cl (stereo not shown)", 5),
    ("COc1ccc(N2C(=O)CC(S(=O)(=O)C3CCCCC3)C2=O)cc1 (stereo not shown)", 75),
    ("Cc1ccccc1N1C(=O)CC(S(=O)(=O)C2CCCCC2)C1=O (stereo not shown)", 25),
]
